assayed_target: 5-hydroxytryptamine receptor 2A (Homo sapiens); further: assay procedure not described here
Sequence (P28223 whole entry): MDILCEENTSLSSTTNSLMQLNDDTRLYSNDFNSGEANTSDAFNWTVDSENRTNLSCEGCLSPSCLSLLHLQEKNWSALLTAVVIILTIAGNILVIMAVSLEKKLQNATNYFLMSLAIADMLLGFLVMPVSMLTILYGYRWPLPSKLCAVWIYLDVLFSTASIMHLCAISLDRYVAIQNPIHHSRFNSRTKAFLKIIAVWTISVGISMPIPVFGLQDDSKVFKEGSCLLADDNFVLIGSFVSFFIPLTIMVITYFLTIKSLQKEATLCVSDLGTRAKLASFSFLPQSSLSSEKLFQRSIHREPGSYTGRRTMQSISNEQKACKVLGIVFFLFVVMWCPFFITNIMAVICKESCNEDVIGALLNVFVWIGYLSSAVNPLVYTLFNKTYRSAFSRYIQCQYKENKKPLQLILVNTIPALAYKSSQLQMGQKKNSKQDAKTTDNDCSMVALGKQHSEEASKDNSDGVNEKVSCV
Format: functional, cell-based

molecule	assayed_target	AC50
Cc1nnc(SCC2=C(C(=O)O)N3C(=O)[C@@H](NC(=O)Cn4cnnn4)[C@H]3SC2)s1	5-hydroxytryptamine receptor 2A (Homo sapiens)	> 30 µM
NS(=O)(=O)c1cc2c(cc1Cl)N=C(CSCc1ccccc1)NS2(=O)=O [BENZTHIAZIDE]	5-hydroxytryptamine receptor 2A (Homo sapiens)	> 10 µM
CN(C)C/C=C/C(=O)Nc1cc2c(Nc3ccc(F)c(Cl)c3)ncnc2cc1O[C@H]1CCOC1	5-hydroxytryptamine receptor 2A (Homo sapiens)	> 30 µM
CC(C)(C)NCC(O)c1ccccc1Cl (stereo not given)	5-hydroxytryptamine receptor 2A (Homo sapiens)	> 30 µM
Cn1cc(C(=O)[C@@H]2CCc3nc[nH]c3C2)c2ccccc21	5-hydroxytryptamine receptor 2A (Homo sapiens)	> 30 µM

---

assayed_target: Prostaglandin G/H synthase 1 (Rattus norvegicus, UniProt Q63921); further: assay procedure not described here
Sequence (Q63921 whole entry): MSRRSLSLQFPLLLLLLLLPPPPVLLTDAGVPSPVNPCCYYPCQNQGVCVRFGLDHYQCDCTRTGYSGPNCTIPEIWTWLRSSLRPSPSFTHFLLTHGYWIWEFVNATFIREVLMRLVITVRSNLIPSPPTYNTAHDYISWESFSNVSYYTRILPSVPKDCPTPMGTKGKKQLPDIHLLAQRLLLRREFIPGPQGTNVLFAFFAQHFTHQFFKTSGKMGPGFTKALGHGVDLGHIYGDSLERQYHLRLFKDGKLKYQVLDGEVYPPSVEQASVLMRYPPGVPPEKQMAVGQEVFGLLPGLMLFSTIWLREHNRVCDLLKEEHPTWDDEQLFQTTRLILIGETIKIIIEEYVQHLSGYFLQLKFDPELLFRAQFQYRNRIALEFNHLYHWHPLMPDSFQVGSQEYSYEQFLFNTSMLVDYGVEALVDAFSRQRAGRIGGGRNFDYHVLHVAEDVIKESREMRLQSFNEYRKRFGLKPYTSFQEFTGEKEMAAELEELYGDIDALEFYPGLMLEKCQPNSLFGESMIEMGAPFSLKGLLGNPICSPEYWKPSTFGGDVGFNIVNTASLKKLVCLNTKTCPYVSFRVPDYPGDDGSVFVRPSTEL
Format: functional
Below: a set of entries, each annotated with reported AC50.

compound	AC50
C[C@]12C=CC(=O)C=C1CC[C@@H]1[C@@H]2CC[C@]2(C)OC(=O)CC[C@@H]12	> 10 µM
CCC1(c2ccc(N)cc2)CCC(=O)NC1=O (stereo unspecified) [AMINOGLUTETHIMIDE]	> 30 µM
OC[C@H]1O[C@@H](n2cnc3c2NC=NC[C@H]3O)C[C@@H]1O	6.6 µM
CCCc1nc2c(C)cc(-c3nc4ccccc4n3C)cc2n1Cc1ccc(-c2ccccc2C(=O)O)cc1	> 30 µM
CNC(=C[N+](=O)[O-])NCCSCc1csc(CN(C)C)n1	> 10 µM
CC(C)c1cccc(C(C)C)c1O	> 3 µM

---

Reported AC50 values, Sodium-dependent dopamine transporter (Homo sapiens, UniProt Q01959).

molecule	AC50
O=C1Nc2ccc(Cl)cc2C(c2ccccc2Cl)=NC1O (stereo not drawn)	> 10 µM
CCN1CC(CCN2CCOCC2)C(c2ccccc2)(c2ccccc2)C1=O (stereo not drawn)	> 30 µM
COc1ccc([C@@H]2CC(=O)c3c(O)cc(O)cc3O2)cc1O	> 10 µM
CC(C)[C@@H](C)/C=C/[C@@H](C)[C@H]1CC[C@H]2/C(=C/C=C3\C[C@@H](O)CC[C@@H]3C)CCC[C@]12C [DIHYDROTACHYSTEROL]	> 10 µM
COc1ccc(CN2CCN(C(c3ccc(F)cc3)c3ccc(F)cc3)CC2)c(OC)c1OC	16 µM
CN[C@]1(c2ccccc2Cl)CCCCC1=O	> 30 µM
CC(C(=O)O)c1ccc2oc(-c3ccc(Cl)cc3)nc2c1 (stereo not drawn)	> 30 µM
Cc1cc(C2CCCCC2)n(O)c(=O)c1	> 30 µM

---

assayed_target: Glucocorticoid receptor (Homo sapiens); further: assay procedure not described here
Sequence (P04150 whole entry): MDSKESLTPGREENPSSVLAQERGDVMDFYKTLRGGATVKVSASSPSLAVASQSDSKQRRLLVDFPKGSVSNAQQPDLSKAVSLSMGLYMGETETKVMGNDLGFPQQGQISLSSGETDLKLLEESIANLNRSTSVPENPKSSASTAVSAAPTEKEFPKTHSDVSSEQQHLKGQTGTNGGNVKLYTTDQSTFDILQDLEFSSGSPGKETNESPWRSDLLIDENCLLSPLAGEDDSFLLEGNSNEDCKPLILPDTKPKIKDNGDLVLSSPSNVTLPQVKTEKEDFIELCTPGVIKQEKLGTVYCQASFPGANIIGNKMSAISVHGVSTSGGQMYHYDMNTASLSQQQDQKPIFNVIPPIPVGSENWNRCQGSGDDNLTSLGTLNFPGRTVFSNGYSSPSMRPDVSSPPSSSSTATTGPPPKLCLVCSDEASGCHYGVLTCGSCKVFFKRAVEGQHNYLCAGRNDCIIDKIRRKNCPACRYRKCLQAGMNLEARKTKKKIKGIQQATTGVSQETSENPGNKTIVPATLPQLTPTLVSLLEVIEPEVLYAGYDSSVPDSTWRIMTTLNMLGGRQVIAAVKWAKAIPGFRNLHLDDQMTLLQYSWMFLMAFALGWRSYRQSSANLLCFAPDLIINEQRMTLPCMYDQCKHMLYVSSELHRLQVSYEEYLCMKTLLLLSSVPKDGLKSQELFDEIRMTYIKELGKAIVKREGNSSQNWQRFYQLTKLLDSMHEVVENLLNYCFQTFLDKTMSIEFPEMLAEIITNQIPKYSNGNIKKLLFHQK
Where a SMILES comes first, the peptide text is derived from it. [ ]: non-standard residue; d: D form. pGlu = O=C1CC[C@@H](C(=O)O)N1; Thz = O=C(O)[C@@H]1CSCN1

molecule	AC50
O=c1[nH]c2ccccc2n1CCCN1CCN(C(c2ccccc2)c2ccccc2)CC1 [OXATOMIDE]	> 30 µM
CCOc1nc2cccc(C(=O)O)c2n1Cc1ccc(-c2ccccc2-c2nnn[nH]2)cc1	> 30 µM
COc1ccc(C2C(=O)c3ccccc3C2=O)cc1	> 30 µM
C=CC[N+]1([C@H]2C[C@H]3[C@@H]4CC[C@H]5C[C@H](O)[C@@H](N6CCOCC6)C[C@]5(C)[C@H]4CC[C@]3(C)[C@H]2OC(C)=O)CCCC1	> 30 µM
CCCC(C)(COC(N)=O)COC(N)=O [MEPROBAMATE]	> 10 µM
CC/C=C\C/C=C\C/C=C\C/C=C\C/C=C\CCCC(=O)OCC	> 30 µM
CC(C(=O)O)c1ccc2c(c1)CC(=O)c1ccccc1S2 (stereo not given)	> 30 µM
O=C1c2ccccc2C(=O)C1c1ccccc1	> 10 µM
C[C@]12C=CC(=O)C=C1CC[C@H]1[C@@H]3C[C@@H](O)[C@](O)(C(=O)CO)[C@@]3(C)C[C@H](O)[C@@]12F	0.0091 µM
COc1cc(C(=O)NS(=O)(=O)c2ccccc2C)ccc1Cc1cn(C)c2ccc(NC(=O)OC3CCCC3)cc12	24.9 µM
CCN1CCCC1CNC(=O)c1cc(S(=O)(=O)CC)ccc1OC (stereo not given) [SULTOPRIDE]	> 30 µM
CCOC(=O)[C@@H](N)Cc1ccc(-c2cc(O[C@H](c3ccc(Cl)cc3-n3ccc(C)n3)C(F)(F)F)nc(N)n2)cc1	23 µM
O=C1CC[C@@H](C(=O)N2CSC[C@H]2C(=O)O)N1 [PIDOTIMOD] ([pGlu]-[Thz]-OH)	> 30 µM
Cc1cccc(C)c1NC(=O)CC12CCCN1CCC2 [PILSICAINIDE]	> 30 µM
C/C=C(/C(=C/C)c1ccc(O)cc1)c1ccc(O)cc1	0.736 µM
CCOC(=O)c1c(CSc2ccccc2)n(C)c2cc(Br)c(O)c(CN(C)C)c12	> 30 µM
Clc1ccc(CCC(Cn2ccnc2)Sc2c(Cl)cccc2Cl)cc1 (stereo not given)	18 µM
CCCN1CC(NS(=O)(=O)N(CC)CC)CC2Cc3c(O)cccc3CC21 (stereo not given) [QUINAGOLIDE]	> 30 µM
CCC(=O)O[C@]1(C(=O)CCl)[C@@H](C)C[C@H]2[C@@H]3CCC4=CC(=O)C=C[C@]4(C)[C@@]3(F)[C@@H](O)C[C@@]21C [CLOBETASOL PROPIONATE]	0.0078 µM
CC(CN(C)C)C(C)(O)Cc1ccc(Cl)cc1 (stereo not given)	> 30 µM
O=C1c2cccc3c2[C@H](CCC3)CN1[C@@H]1CN2CCC1CC2	> 30 µM
CCCN(CCC)S(=O)(=O)c1ccc(C(=O)O)cc1	> 10 µM
C[C@]12C/C(=C/O)C(=O)C[C@@H]1CC[C@@H]1[C@@H]2CC[C@@]2(C)[C@H]1CC[C@]2(C)O	21 µM
COc1cc(N)c(Cl)cc1C(=O)NC1CCN(CCCOc2ccc(F)cc2)CC1OC (stereo not given) [CISAPRIDE]	> 30 µM
C=CCN1CCc2nc(N)sc2CC1 [TALIPEXOLE]	> 30 µM
O=C(CCCN1CCC(O)(c2ccc(Br)cc2)CC1)c1ccc(F)cc1	> 30 µM
CC(=O)Nc1ccc(CC(=O)O)cc1	> 30 µM
CCC[C@@H]1C[C@@H](C(=O)N[C@@H]([C@H]2O[C@H](SC)[C@H](O)[C@@H](O)[C@H]2O)[C@@H](C)O)N(C)C1	> 10 µM
C[N+](C)(C)CCOP(=O)([O-])OC[C@H](O)CO	> 30 µM
O=C(O)Cc1ccccc1Oc1ccc(Cl)cc1Cl	> 30 µM
